experiment: reduction of polyQ htt aggregates in cells – imaging, exon1htt(103Q)mCFP cells, high-content imaging, primary screen (AID 483); conditions: exon1htt(103Q)mCFP cell line, aggregate imaging, at 2 µM; measured here: cell count, toxicity;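 note: compound exposure lasted 3 days before fixation; percent of the per-plate median nuclei count of sample wells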
Let's look at some compounds and their measured nuclei count.

{"given_smiles": "Cn1c(SCC(=O)Nc2cccc3ccccc23)nc(O)cc1=O", "nuclei count": "113%"}
{"given_smiles": "Cc1cc(N=Cc2cc(Br)ccc2O)no1", "nuclei count": "106%"}
{"given_smiles": "Cc1cc2nc(-c3ccco3)cc(C(F)(F)F)n2n1", "nuclei count": "104%"}
{"given_smiles": "Cc1nnc2ccc(N3CCN(c4cccc(C(F)(F)F)c4)CC3)nn12", "nuclei count": "32.1%"}
{"given_smiles": "Cc1csc(NC(=O)c2ccco2)n1", "nuclei count": "109%"}
{"given_smiles": "CCSc1nnc(NC(=O)CCNS(=O)(=O)c2cc(Br)cnc2N)s1", "nuclei count": "93.5%"}
{"given_smiles": "CC(C)NC(=O)CSCc1ccccc1Cl", "nuclei count": "100%"}

====

compounds and their reported cell count
test: inhibitors of TNFa-induced NFkB p65 translocation, primary screen, imaging, HUVEC, MLSMR starter and 10KST1 sets (AID 438); conditions: HUVEC TNFa-induced p65 nuclear translocation; measured here: nuclei count (cytotoxicity indicator), at 2.08 µM;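 note: compound added about 3h40 before a 20 min TNFalpha stimulation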
parameter: cell count

{"compound": "CCCc1ccc(Oc2cn[nH]c2-c2ccc(O)c(C)c2O)cc1", "quantitative_result": 679}
{"compound": "O=C1CCNc2cc3ccccc3cc21", "quantitative_result": 356}
{"compound": "Cc1c(NC2=NC3(CCCCC3)Cc3ccccc32)c(=O)n(-c2ccccc2)n1C", "quantitative_result": 716}
{"compound": "CNS(=O)(=O)c1cccc(C(=O)OCC(=O)c2cc(C)n(-c3ccc4c(c3)OCO4)c2C)c1", "quantitative_result": 406}
{"compound": "CC1CCCN(C(=O)CN2C(=O)c3ccccc3C2=O)C1 (stereo unspecified)", "quantitative_result": 432}
{"compound": "O=c1[nH]c(CN2CCN(Cc3ccccc3)CC2)nc2sc3c(c12)CCC3", "quantitative_result": 406}
{"compound": "N#Cc1c(NC(=O)c2ccc(Br)o2)n(-c2ccccc2)c2nc3ccccc3nc12", "quantitative_result": 275}
{"compound": "COc1ccc(S(=O)(=O)NCCC(=O)NC2CCCCCCC2)cc1", "quantitative_result": 293}
{"compound": "O=C(OCn1nnc2ccccc2c1=O)C1CCN(S(=O)(=O)c2cccs2)CC1", "quantitative_result": 479}
{"compound": "COc1ccc(CNc2ccc(C(=O)O)cc2)cc1", "quantitative_result": 511}
{"compound": "COc1ccc(-c2ccc(-c3noc(-c4cccs4)n3)c(OC)n2)cc1", "quantitative_result": 391}

====

assay: TLR3 IRF3 reporter activation blockers – cell-based, poly I:C stimulus, luciferase, 10K MLSCN set, primary screen (AID 602277); details: HEK293-TLR3 RL24 IRF3 luciferase reporter, at 10 µM, stronger effect = higher value
Below, each entry is listed with its recorded inhibition.

{"compound": "O=C(CCC(=O)N1CCc2ccccc2C1)N1CCN(S(=O)(=O)c2ccccc2)CC1", "inhibition / %": 5.93}
{"compound": "Cc1cccc(NC(=O)Cn2c(=O)n(C)c3ccccc32)c1", "inhibition / %": 9.37}
{"compound": "CC(=O)c1ccc(-c2nc3ccccc3n2C)o1", "inhibition / %": -73.6}
{"compound": "COc1ccc2c(c1OC)C(=O)N(c1ccc3c(c1)CCC3)C2=O", "inhibition / %": -9.24}
{"compound": "O=S(=O)(c1ccccc1)c1nc(-c2ccco2)oc1NCCCN1CCOCC1", "inhibition / %": 4.26}
{"compound": "C=CCN1C(=O)C2(C(C#N)=C(N)Oc3n[nH]c(CCC)c32)c2ccccc21 (stereo unspecified)", "inhibition / %": 16.8}

====

The entries below are paired with their reported NADPH fluorescence slope.
biological target: Voltage-gated potassium channel subunit beta-2 (Rattus norvegicus); assay: enhancers of rat Kvbeta2 NADPH turnover – biochemical, NADPH fluorescence, primary screen (AID 623); conditions: Recombinant KvBeta, NADPH fluorescence decrease slope, 10 min; at 10 µM; stronger effect = lower value;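 note: fluorescence intensity change per second fitted from 20 to 320 s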

{"molecule": "CC1=C(C(N)=O)C(c2ccccn2)n2nc(SCc3ccccc3)nc2N1 (configuration not stated)", "NADPH fluorescence slope": "-8.8e-05"}
{"molecule": "Cn1c(=O)c2c(nc(SCCCC#N)n2Cc2ccccc2F)n(C)c1=O", "NADPH fluorescence slope": "-2.8e-05"}
{"molecule": "CCn1cc(SCC(=O)Nc2cc(C)on2)c2ccccc21", "NADPH fluorescence slope": "-2.7e-05"}
{"molecule": "O=C(CCCCCN1C(=O)CCC1=O)NCc1ccccc1", "NADPH fluorescence slope": "-4.8e-05"}
{"molecule": "COC(=O)c1cccc(NC(=O)CSc2nnc(COc3ccc(C#N)cc3)n2-c2ccccc2)c1", "NADPH fluorescence slope": "4.9e-05"}
{"molecule": "Cc1ccc(NCC(O)C(O)C(O)CO)cc1C (configuration not stated)", "NADPH fluorescence slope": "5.8e-07"}
{"molecule": "COc1ccccc1OCC(=O)NCC1CCCCC1", "NADPH fluorescence slope": "-2.9e-05"}
{"molecule": "Cc1cccc(C)c1NC(=O)CS(=O)CC(=O)NC1CCCc2ccccc21 (configuration not stated)", "NADPH fluorescence slope": "-3e-05"}
{"molecule": "COC(=O)CN(c1ccc(OC)cc1)S(=O)(=O)c1ccc(OC)c(OC)c1", "NADPH fluorescence slope": -0.000101}
{"molecule": "O=C(Nc1ccccc1)c1cnc2n(c1=O)CCS2", "NADPH fluorescence slope": "-3.2e-05"}
{"molecule": "CC1Cc2nc(SCC(=O)Nc3ccc(F)cc3F)n(C)c(=O)c2S1 (configuration not stated)", "NADPH fluorescence slope": "-3.7e-05"}
{"molecule": "O=c1[nH]c(CN2CCN(Cc3ccccc3)CC2)nc2sc3c(c12)CCC3", "NADPH fluorescence slope": "-3e-05"}
{"molecule": "CC(C)CC(OC(=O)c1cccs1)C(=O)NCc1ccco1 (configuration not stated)", "NADPH fluorescence slope": "-2.5e-05"}
{"molecule": "C(=C\\c1ccccc1)/CSc1nnc(-c2ccccn2)n1Cc1ccco1", "NADPH fluorescence slope": "-5.3e-05"}
{"molecule": "COc1ccc(-n2ncc3c(N4CCC(C)CC4)ncnc32)cc1", "NADPH fluorescence slope": "-5e-05"}
{"molecule": "CCN1CCN(S(=O)(=O)Cc2ccccc2)CC1", "NADPH fluorescence slope": "-2.9e-05"}
{"molecule": "O=C(O)CCC(=O)c1c[nH]c2ccccc12", "NADPH fluorescence slope": "9.9e-05"}
{"molecule": "CCN(CC)CCCNC(=O)c1cn(C)c2ccc(S(=O)(=O)N(C)C)cc2c1=O", "NADPH fluorescence slope": "-3.7e-05"}
{"molecule": "O=S(=O)(c1ccccc1)c1nc(-c2cccs2)oc1NCC1CCCO1 (configuration not stated)", "NADPH fluorescence slope": "5.1e-06"}
{"molecule": "O=C(O)c1cccn2c(=O)c3ccccc3nc12", "NADPH fluorescence slope": "-2.6e-05"}
{"molecule": "O=C(O)C1CC(=O)N(CCOc2ccccc2)C1 (configuration not stated)", "NADPH fluorescence slope": "4.3e-05"}
{"molecule": "Cc1c(NC(=O)CSc2nnc3sc4ccccc4n23)c(=O)n(-c2ccccc2)n1C", "NADPH fluorescence slope": "6.7e-05"}
{"molecule": "Oc1ccc(N2CCN(C(c3ccncc3)c3nnnn3C3CCCC3)CC2)cc1 (configuration not stated)", "NADPH fluorescence slope": "-4.4e-05"}
{"molecule": "Cn1c(=O)c(=O)n(C)c2cc(S(=O)(=O)N3CCN(c4cccc(C(F)(F)F)c4)CC3)ccc21", "NADPH fluorescence slope": "1.2e-05"}
{"molecule": "CCc1ccccc1NC(=O)c1cnc2n(c1=O)CCS2", "NADPH fluorescence slope": "-1.7e-05"}
{"molecule": "CC1CCc2nn(CC(=O)N3CCN(C(=O)c4ccco4)CC3)cc2C1 (configuration not stated)", "NADPH fluorescence slope": "-5.6e-05"}
{"molecule": "CC1CCN(C(=O)CCNS(=O)(=O)c2ccccc2)CC1", "NADPH fluorescence slope": "-2.3e-07"}
{"molecule": "CC1=C(C(=O)OC2CCCC2)C(c2ccc(C)o2)C2=C(CC(c3cccs3)CC2=O)N1 (configuration not stated)", "NADPH fluorescence slope": "-5.5e-05"}
{"molecule": "Cc1cc(C)nc(NC2=NCC(=O)N2c2ccccc2Br)n1", "NADPH fluorescence slope": "9.8e-06"}
{"molecule": "CCCn1c(N)c(C(=O)CSc2nnc(Cc3ccccc3)o2)c(=O)n(C)c1=O", "NADPH fluorescence slope": 0.00012}
{"molecule": "CCN(CC)C(=O)COC(=O)c1ccc(O)cc1", "NADPH fluorescence slope": "2.3e-05"}
{"molecule": "COc1ccc(C2(C(=O)N3CCCC3)CCOCC2)cc1OC", "NADPH fluorescence slope": "-1.4e-05"}
{"molecule": "O=C(Nc1nnc(COc2ccc(F)cc2)s1)c1cccs1", "NADPH fluorescence slope": "-2.5e-05"}
{"molecule": "O=C(CNCC1CCCO1)Nc1ccccc1-n1cccc1 (configuration not stated)", "NADPH fluorescence slope": "-4.7e-05"}
{"molecule": "O=C(O)c1cccc(NS(=O)(=O)c2ccc3nnn(O)c3c2)c1", "NADPH fluorescence slope": "-5.1e-06"}
{"molecule": "Cc1cc(C)nc(N(C#N)CC(=O)N2CCC(C(N)=O)CC2)n1", "NADPH fluorescence slope": "1.8e-05"}
{"molecule": "O=C(CCN1C(=O)C2C3C=CC(C3)C2C1=O)Nc1c(F)cc(F)cc1Br (configuration not stated)", "NADPH fluorescence slope": "-6.8e-05"}
{"molecule": "COc1ccccc1Nc1nc2ccccc2[nH]1", "NADPH fluorescence slope": "-3.7e-06"}
{"molecule": "COc1ccc(S(=O)(=O)N2CCSC2c2ccccc2)cc1 (configuration not stated)", "NADPH fluorescence slope": "-3.5e-05"}
{"molecule": "COC(=O)CCC(=O)Nc1cccc(Cl)c1", "NADPH fluorescence slope": "-3.8e-05"}
{"molecule": "Cc1nc2ccccc2c2oc(C(=O)N3CCN(C(=O)c4ccco4)CC3)cc12", "NADPH fluorescence slope": "-1.4e-05"}
{"molecule": "O=C(C1CCC(CNc2c(N3CCCCC3)c(=O)c2=O)CC1)N1CCc2ccccc2C1 (configuration not stated)", "NADPH fluorescence slope": "-1.9e-05"}
{"molecule": "CC(=O)c1c(C)nn(C(C)CC(=O)O)c1C (configuration not stated)", "NADPH fluorescence slope": "-2.6e-05"}
{"molecule": "C/C=C/c1ccc(OCCn2cncn2)c(OC)c1", "NADPH fluorescence slope": "3.6e-05"}
{"molecule": "O=C(CN1C(=O)CSC1=O)N1CCc2ccccc2C1", "NADPH fluorescence slope": "-5.1e-05"}
{"molecule": "COCCCNC(=O)C1CCN(C(=O)Nc2ccc(Cl)cc2)CC1", "NADPH fluorescence slope": "1.1e-05"}
{"molecule": "COc1ccc(S(=O)(=O)CCC(=O)O)cc1", "NADPH fluorescence slope": "1.2e-05"}
